study_target: T1, CNDP2 peptide complexed with HLA-A*02:01 on T2 cells (human)
T1 construct: whole, on cells; also called CNPD2
test_protocol: flow cytometry, peptide-loaded T2 cells;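 note: binding of single-chain Fv antibody constructs, raised in XenoMouse, to peptide-pulsed T2 cells measured by flow cytometry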

binder | Signal/background
18179-H7 (scFv, scFv in bacterial lysate, detected with anti-Flag M2) scFv: EVQLLESGGGLVQPGGSLRLSCAASGFTFSNAWMSWVRQAPGKGLEWVGRIKSKTYGGTTDYAAPVKGRFTISRDDSKNTLYLQMNSLKTEDTAVYYCTTPSYSGSYYNYFSVMDVWGQGTTVTVSSGGGGSGGGGSGGGGSELQMTQSPSSLSASVGDRVTITCRTSQSISSYLNWFQQKPGKAPKLLIFAASSLQSGVPSRFSGSGSGTDFTLTISSLQPEDFATYYCQQSYSSPFTFGPGTKVEIK | 1
